Listed next: entries and their corresponding z-score.
Experimental system: Luciferin 4-monooxygenase (Photinus pyralis) (UniProt P08659)
Sequence (P08659 whole entry, looked up): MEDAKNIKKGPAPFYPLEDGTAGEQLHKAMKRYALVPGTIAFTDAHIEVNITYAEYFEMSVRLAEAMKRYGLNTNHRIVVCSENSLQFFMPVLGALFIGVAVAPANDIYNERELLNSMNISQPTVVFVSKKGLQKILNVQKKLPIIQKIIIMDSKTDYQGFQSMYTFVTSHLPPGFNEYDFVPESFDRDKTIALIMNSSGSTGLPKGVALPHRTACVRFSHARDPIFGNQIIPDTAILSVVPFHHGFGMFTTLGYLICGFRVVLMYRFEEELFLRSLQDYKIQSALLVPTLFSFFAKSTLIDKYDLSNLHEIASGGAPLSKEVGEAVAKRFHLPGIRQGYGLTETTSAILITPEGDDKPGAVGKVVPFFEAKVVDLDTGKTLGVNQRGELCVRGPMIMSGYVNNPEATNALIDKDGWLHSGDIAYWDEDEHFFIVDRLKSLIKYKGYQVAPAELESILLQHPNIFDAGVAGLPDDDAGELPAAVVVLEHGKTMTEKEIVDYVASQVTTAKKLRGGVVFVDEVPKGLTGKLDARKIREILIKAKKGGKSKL
Protocol description: firefly luciferase enzyme inhibitors, primary screen, biochemical, luminescence, purified enzyme, 2006 set (AID 1141);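 also: cell-free assay with purified firefly luciferase at 100 ng per well in PBS; test concentration not given here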
Experimental setup: SteadyGlo luminescence, 30 min, higher = more signal, called active from +8 up or from −8 down
Write no unit; give the number alone.

# count of solved cases: 2
Structure smiles	z-score
COCCOC(=O)N1C(=O)[C@@]2(c3cc(C#Cc4ccc(OC)cc4)ccc31)[C@H](C(=O)Nc1nc3ccccc3s1)[C@H]1C(=O)O[C@H](c3ccccc3)[C@H](c3ccccc3)N1[C@@H]2c1ccc(OCCO)cc1	-3.71
CN(C)CCCCNC(=O)[C@@H]1C[C@@H]2C(=O)N[C@@H](Cc3ccccc3)C(=O)N2[C@@H]1c1cccc(OCCO)c1	-2.68

Proceed to the following item.
The observed z-score for `COc1ccc([Si](C)(C)[C@@H]2[C@@H](CC(=O)N(CCO)Cc3ccccc3)O[C@]3(C(=O)N(c4ccccc4)c4ccccc43)[C@H]2C)cc1` when tested with Luciferin 4-monooxygenase (Photinus pyralis) (UniProt P08659) stands at 0.293
